Origin of measurements: patent US20260083865A1

Target or test system: Fc-fusion protein of human PSMA (hPSMA-Fc) (Homo sapiens, UniProt Q04609)
Construct: purchased Acro Biosystems PSA-H5264
Sequence (Q04609 44-750 limits assumed): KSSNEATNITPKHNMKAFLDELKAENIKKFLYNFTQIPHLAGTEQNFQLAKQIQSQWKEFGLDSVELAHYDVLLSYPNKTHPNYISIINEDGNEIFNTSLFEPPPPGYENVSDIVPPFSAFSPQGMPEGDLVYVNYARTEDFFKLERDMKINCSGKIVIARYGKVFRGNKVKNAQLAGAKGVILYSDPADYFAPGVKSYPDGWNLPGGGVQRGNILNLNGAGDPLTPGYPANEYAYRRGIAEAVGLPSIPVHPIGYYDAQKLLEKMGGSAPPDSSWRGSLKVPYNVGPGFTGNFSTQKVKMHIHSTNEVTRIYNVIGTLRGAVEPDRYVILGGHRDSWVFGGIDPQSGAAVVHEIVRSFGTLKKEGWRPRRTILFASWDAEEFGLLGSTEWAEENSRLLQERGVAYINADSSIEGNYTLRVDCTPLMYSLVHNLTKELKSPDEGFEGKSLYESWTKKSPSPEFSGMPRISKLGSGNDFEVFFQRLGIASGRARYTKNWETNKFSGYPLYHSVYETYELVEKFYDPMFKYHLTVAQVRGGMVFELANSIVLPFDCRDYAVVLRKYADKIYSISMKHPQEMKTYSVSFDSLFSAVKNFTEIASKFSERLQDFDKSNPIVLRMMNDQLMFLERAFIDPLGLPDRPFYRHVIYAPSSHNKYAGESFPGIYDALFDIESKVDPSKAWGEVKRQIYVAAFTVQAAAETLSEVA
Assay: Surface plasmon resonance assay (Biacore T200, single cycle kinetic)
Type: binding
Experimental context: pKD category for PSMA SPR activity assay, hPSMA-Fc, 25° C.; read-out: pKD CAT (converted)
Numbered stars: 1 amine (or outer) side, 2 acyl side, 3 side chain; on linkers, the order of the positions; unused ones are H or OH. Bridge positions count the residues as written; N and C are the ends. Square brackets hold non-standard residues; d marks the D form. Peptide text beside a SMILES is read from it. * marks the point of attachment. DOTA = O=C(O)CN1CCN(CC(=O)O)CCN(CC(=O)*)CCN(CC(=O)O)CC1; Oic = O=C(O)[C@@H]1C[C@@H]2CCCC[C@@H]2N1; Phe(4-Cl) = N[C@@H](Cc1ccc(Cl)cc1)C(=O)O; X1 = O=C(CC1CCN([*:1])CC1)[*:2]; Tle = CC(C)(C)[C@H](N)C(=O)O; Nle = CCCC[C@H](N)C(=O)O; Aib = CC(C)(N)C(=O)O
Readout: Kd

Molecule	Target or test system	Readout	Result
CC(=O)N[C@H](C(=O)NC(C)(C)C(=O)N[C@@H](Cc1ccccc1)C(=O)N[C@H]1CSSC[C@@H](C(=O)N[C@H](C(=O)N[C@H](C(=O)N[C@@H](CC(=O)O)C(N)=O)[C@@H](C)O)C(C)(C)C)NC(=O)[C@H](CC(N)=O)NC(=O)[C@@H]2C[C@@H]3CCCC[C@@H]3N2C(=O)[C@H](CCCNC(=N)N)NC(=O)[C@H](CCCCN)NC1=O)[C@@H](C)O [PSM-0403] (Ac-T[Aib]FCKR[Oic]NC[Tle]TD-NH2; disulfide 4-9)	Fc-fusion protein of human PSMA (hPSMA-Fc) (Homo sapiens, UniProt Q04609)	Kd	< 12.6 nM
C[C@@H](O)[C@H](NC(=O)CC1CCN(C(=O)CN2CCN(CC(=O)O)CCN(CC(=O)O)CCN(CC(=O)O)CC2)CC1)C(=O)NC(C)(C)C(=O)N[C@@H](Cc1ccc(Cl)cc1)C(=O)N[C@H]1CSSC[C@@H](C(=O)N[C@H](C(N)=O)C(C)(C)C)NC(=O)[C@H](CC(N)=O)NC(=O)C(C)(C)NC(=O)[C@H](CCCNC(=N)N)NC(=O)[C@H](CCCCN)NC1=O [PSM-0433] ({DOTA}-[X1]T[Aib][Phe(4-Cl)]CKR[Aib]NC[Tle]-NH2; disulfide 5-10)	Fc-fusion protein of human PSMA (hPSMA-Fc) (Homo sapiens, UniProt Q04609)	Kd	< 12.6 nM
CCCC[C@H](NC(=O)[C@@H]1CSSC[C@H](NC(=O)[C@H](Cc2ccccc2)NC(=O)[C@H](C)NC(=O)[C@H](C)NC(C)=O)C(=O)N[C@@H](CCCCN)C(=O)N[C@@H](CCCNC(=N)N)C(=O)N[C@@H](C)C(=O)N[C@@H](CC(N)=O)C(=O)N1)C(=O)N[C@H](C(=O)N[C@@H](CC(=O)O)C(N)=O)[C@@H](C)O [PSM-0491] (Ac-AAFCKRANC[Nle]TD-NH2; disulfide 4-9)	Fc-fusion protein of human PSMA (hPSMA-Fc) (Homo sapiens, UniProt Q04609)	Kd	126 to 501 nM
